Experiment: A High-Content qHTS Against Drug Library for the Identification of Small Molecules that Inhibit DYT1 Early Onset Primary Dystonia-Associated Cell Pathology (AID 1645839); also: potency is read from the fitted curve at half-maximal effect
Conditions: HEK293 Flp-In EGFP-delE TorsinA, punctate imaging, 48 h; series mostly up to 46.1 µM
Records with an inconclusive call do not appear. Calls of active or inactive are those of the source. Calls follow the shape of the full dose curve.
Test readout: Potency

[[record]]
chem_smiles = "c1ccc2sc(SN3CCOCC3)nc2c1"
measurement = "inactive"

[[record]]
chem_smiles = "CCCCCCCCCCCCOCCO"
measurement = "inactive"

[[record]]
chem_smiles = "CC(C)OC(=O)c1cc(C(=O)OC(C)C)cc([N+](=O)[O-])c1"
measurement = "inactive"

[[record]]
chem_smiles = "Cc1nc2ccccc2n1Cc1ccc(Cl)cc1"
measurement = "inactive"

[[record]]
chem_smiles = "Cc1ccc(C(=O)c2ccc(CC(=O)O)n2C)cc1"
measurement = "inactive"

[[record]]
chem_smiles = "N=C1N=C(N)c2cc3ccccc3cc21"
measurement = "35.5 µM (active)"

